Reported pIC50 values are given for each entry in this list.
Biological target: Delta-type opioid receptor (Mus musculus, UniProt P32300)
Sequence (P32300 whole entry): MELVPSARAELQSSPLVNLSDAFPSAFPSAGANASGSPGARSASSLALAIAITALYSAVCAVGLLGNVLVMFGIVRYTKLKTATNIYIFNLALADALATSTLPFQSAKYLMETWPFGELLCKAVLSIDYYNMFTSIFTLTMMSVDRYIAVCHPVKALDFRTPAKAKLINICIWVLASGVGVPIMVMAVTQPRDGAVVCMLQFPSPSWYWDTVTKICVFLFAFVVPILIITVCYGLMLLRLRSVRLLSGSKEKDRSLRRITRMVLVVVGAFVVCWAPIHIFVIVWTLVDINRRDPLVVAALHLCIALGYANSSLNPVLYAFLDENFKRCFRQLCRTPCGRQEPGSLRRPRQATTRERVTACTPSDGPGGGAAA
Experiment: Agonist activity at delta opioid receptor in mouse vas deferens assessed as inhibition of electrically evoked muscle contractions
pIC50: −log10 of the molar value.
result type: pIC50

>>> df
                        structure_as_smiles  result
0  C=CCN[C@@H](Cc1c(C)cc(O)cc1C)C(=O)N1CCC[C@H]1C(=O)N[C@@H](Cc1ccccc1)C(=O)N[C@@H](Cc1ccccc1)C(N)=O  < 5.00
1  Cc1cc(O)cc(C)c1C[C@H](N)C(=O)N1CCC[C@H]1C(=O)N[C@@H](Cc1c[nH]c2ccccc12)C(=O)N[C@@H](Cc1ccccc1)C(N)=O  < 5.00
2  C=CCN[C@@H](Cc1c(C)cc(O)cc1C)C(=O)N1CCC[C@H]1C(=O)N[C@@H](Cc1c[nH]c2ccccc12)C(=O)N[C@@H](Cc1ccccc1)C(N)=O  < 5.00

====

Target: Opioid receptors; mu & delta (Rattus norvegicus) (UniProt P33533+P33535)
Sequence (P33533 whole entry, looked up): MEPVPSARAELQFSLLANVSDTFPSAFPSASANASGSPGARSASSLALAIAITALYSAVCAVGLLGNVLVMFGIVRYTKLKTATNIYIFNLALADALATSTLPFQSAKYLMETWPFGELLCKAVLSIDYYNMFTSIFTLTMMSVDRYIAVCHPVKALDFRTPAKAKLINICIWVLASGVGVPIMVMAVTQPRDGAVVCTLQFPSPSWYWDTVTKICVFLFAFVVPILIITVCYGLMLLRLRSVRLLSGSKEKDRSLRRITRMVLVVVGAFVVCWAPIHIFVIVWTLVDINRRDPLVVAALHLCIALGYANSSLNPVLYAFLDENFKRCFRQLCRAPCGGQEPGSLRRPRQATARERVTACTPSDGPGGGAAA
Sequence (P33535 whole entry, looked up): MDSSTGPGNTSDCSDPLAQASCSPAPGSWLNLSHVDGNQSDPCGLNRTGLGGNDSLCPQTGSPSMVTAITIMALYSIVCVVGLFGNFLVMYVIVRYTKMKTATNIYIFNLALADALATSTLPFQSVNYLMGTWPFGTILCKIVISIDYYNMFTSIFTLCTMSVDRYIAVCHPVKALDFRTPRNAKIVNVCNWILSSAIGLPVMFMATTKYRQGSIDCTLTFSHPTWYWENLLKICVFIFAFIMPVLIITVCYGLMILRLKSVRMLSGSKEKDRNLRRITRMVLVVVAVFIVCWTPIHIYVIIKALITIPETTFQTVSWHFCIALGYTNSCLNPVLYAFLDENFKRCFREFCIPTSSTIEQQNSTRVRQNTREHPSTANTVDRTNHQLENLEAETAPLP
Assay: Selectivity for rat mu opioid receptor over rat delta opioid receptor
Format: protein assay
Labelling: Ratio Ki reported below 60 becomes Fulfilled; at or above becomes Not fulfilled.

>>> df
                        structure_as_smiles                             target_system  class_assignment
0  Cc1cc(O)cc(C)c1C[C@H](N)C(=O)N1CCC[C@H]1C(=O)N[C@@H](Cc1c[nH]c2ccccc12)C(=O)N[C@@H](Cc1ccccc1)C(N)=O  Opioid receptors; mu & delta (Rattus norvegicus) (UniProt P33533+P33535)     Not fulfilled
1  C=CCN[C@@H](Cc1ccc(O)cc1)C(=O)N1CCC[C@H]1C(=O)N[C@@H](Cc1ccccc1)C(=O)N[C@@H](Cc1ccccc1)C(N)=O  Opioid receptors; mu & delta (Rattus norvegicus) (UniProt P33533+P33535)         Fulfilled
2  C=CCN[C@@H](Cc1c(C)cc(O)cc1C)C(=O)N1CCC[C@H]1C(=O)N[C@@H](Cc1ccccc1)C(=O)N[C@@H](Cc1ccccc1)C(N)=O  Opioid receptors; mu & delta (Rattus norvegicus) (UniProt P33533+P33535)     Not fulfilled
3  C=CCNC(=O)[C@H](Cc1ccccc1)NC(=O)[C@H](Cc1ccccc1)NC(=O)[C@@H]1CCCN1C(=O)[C@H](Cc1ccc(O)cc1)NCC=C  Opioid receptors; mu & delta (Rattus norvegicus) (UniProt P33533+P33535)         Fulfilled
4  C=CCN[C@@H](Cc1c(C)cc(O)cc1C)C(=O)N1CCC[C@H]1C(=O)N[C@@H](Cc1c[nH]c2ccccc12)C(=O)N[C@@H](Cc1ccccc1)C(N)=O  Opioid receptors; mu & delta (Rattus norvegicus) (UniProt P33533+P33535)         Fulfilled

====

Biological target: Mu-type opioid receptor (Cavia porcellus)
Sequence (P97266 whole entry): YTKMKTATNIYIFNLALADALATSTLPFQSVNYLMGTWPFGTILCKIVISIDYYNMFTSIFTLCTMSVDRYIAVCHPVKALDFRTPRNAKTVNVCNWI
Experiment: Agonist activity at mu opioid receptor in Hartley guinea pig intestine assessed as inhibition of electrically evoked myenteric plexus longitudinal muscle contractions
pIC50: −log10 of the molar value.
Reported pIC50 values are given for each entry in this list.
result type: pIC50

In [3]: df
Out[3]:
                        structure_as_smiles  result_type  result
0  C=CCN[C@@H](Cc1c(C)cc(O)cc1C)C(=O)N1CCC[C@H]1C(=O)N[C@@H](Cc1c[nH]c2ccccc12)C(=O)N[C@@H](Cc1ccccc1)C(N)=O        pIC50  < 5.00
1  C=CCN[C@@H](Cc1c(C)cc(O)cc1C)C(=O)N1CCC[C@H]1C(=O)N[C@@H](Cc1ccccc1)C(=O)N[C@@H](Cc1ccccc1)C(N)=O        pIC50  < 5.00
2  Cc1cc(O)cc(C)c1C[C@H](N)C(=O)N1CCC[C@H]1C(=O)N[C@@H](Cc1c[nH]c2ccccc12)C(=O)N[C@@H](Cc1ccccc1)C(N)=O        pIC50    9.57
